Biological target: T1, SARS-CoV-2 receptor-binding domain (RBD), S protein residues 319-539 (SARS-CoV-2, UniProt P0DTC2 319-539)
T1 construct: also called WT RBD; SARS-COV-2 RBD
Assay: ELISA on coated RBD
measuredQuantity: EC50 (ng/mL)
Write it as a number; the unit ng/mL goes unstated.

Which EC50 value belongs to C881 (antibody, V domains shown) VH: EVQLVESGGGLIQPGGSLRLSCAVSGVAVSTNYMSWVRQAPGQGLEWVSTIYSGDTTYYSDSVKGRFTISRDNSKNTFYLQMNSLRVPDTAVYYCARLGGVFNGFNGSFDYWGQGTLVTVS VL: QSALTQPASVSGSPGQSITISCIGTSSDFENYNLVSWYQQHPGKAPKVMIYEDTKRPSGVSNRFSGSKSANTASLTISGLQAEDEAEYYCCSYAGASTWVFGGGTRVTVV ?
1.44

Repeat for the following binder: C902 (antibody, V domains shown) VH: EVQLVQSGAEVKKPGESLRISCKGSGYSFHTYWIHWVRQMPGKGLEWMGKIDPSDSYTNYSPSFQGHVTFSADRSISTAYLQWSSLKASDTATYYCARLSWSPPTRTTDEKNWFDPWGQGTLVTVSS VL: DIQLTQSPSFLAASAGDRVTITCRASQGISSYLAWYQQKPGKAPKVLIYAASTLQSGVPSRFSGSGSGTEFTLTISSLQPEDCATYYCQQFNSDPLTFGGGTKVEIK
3.4

Repeat for the following binder: C970 (antibody, V domains shown) VH: QVQLQESGPGLVKPSETLSLTCTVSGDSINKYYWGWIRQPPGKGLEWIGYIYYSGTTNYNPSLKSRVTISVDTSKTQFSLKLSSVTAADTAVYYCARLLSTEWSFNWFDPWGQGTLVTVSS VL: SYELTQPPSVSVSPGQTASITCSGDTLGDKYACWYQQKPGQSPLLVIYQNNKRPSGIPERFSGSNSGNTATLTISGTQAMDEADYYCQAWDSSTAYVFGTGTKVTVL
3.71
